SUBJECT_OF_TEST: Insulin-like growth factor 1 receptor (Homo sapiens)
Sequence (P08069 31-736 limits assumed): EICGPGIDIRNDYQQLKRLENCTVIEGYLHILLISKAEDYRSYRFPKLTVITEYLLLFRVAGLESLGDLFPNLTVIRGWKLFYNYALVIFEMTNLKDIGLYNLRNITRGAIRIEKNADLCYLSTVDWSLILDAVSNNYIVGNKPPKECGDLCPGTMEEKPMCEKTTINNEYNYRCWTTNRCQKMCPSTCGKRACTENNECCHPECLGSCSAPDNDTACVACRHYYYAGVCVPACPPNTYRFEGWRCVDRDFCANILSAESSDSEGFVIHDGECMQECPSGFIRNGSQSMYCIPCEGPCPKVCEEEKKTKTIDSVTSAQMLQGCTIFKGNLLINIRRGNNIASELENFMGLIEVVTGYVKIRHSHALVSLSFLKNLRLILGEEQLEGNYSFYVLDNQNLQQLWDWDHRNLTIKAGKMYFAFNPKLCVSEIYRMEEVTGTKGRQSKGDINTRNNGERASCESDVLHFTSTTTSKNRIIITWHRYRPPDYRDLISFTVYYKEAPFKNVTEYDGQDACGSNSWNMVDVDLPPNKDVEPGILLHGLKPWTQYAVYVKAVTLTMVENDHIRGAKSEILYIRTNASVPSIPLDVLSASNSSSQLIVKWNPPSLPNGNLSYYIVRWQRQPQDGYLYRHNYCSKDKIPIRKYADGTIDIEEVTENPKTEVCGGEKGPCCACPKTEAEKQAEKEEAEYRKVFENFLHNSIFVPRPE
Sequence (P08069 741-1367 limits assumed): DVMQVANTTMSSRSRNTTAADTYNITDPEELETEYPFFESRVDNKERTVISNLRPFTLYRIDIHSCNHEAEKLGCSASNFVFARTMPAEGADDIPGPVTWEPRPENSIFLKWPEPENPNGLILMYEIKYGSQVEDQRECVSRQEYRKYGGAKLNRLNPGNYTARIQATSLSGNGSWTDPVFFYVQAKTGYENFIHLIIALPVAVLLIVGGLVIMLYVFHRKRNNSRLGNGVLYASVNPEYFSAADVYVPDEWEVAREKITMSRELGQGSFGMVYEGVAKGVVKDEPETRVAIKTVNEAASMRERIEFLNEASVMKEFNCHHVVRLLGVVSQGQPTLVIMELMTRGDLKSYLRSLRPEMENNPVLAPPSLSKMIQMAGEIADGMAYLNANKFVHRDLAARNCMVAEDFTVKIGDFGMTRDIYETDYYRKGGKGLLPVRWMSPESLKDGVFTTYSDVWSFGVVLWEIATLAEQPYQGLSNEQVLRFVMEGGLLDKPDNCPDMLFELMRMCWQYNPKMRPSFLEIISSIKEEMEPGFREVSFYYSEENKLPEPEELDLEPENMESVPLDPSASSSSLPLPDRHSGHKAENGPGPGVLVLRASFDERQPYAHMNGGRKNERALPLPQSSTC
ASSAY_COMMENT: Inhibition of human recombinant N-terminal His6-tagged IGF-1R using fluorescence substrate after 80 mins by caliper off-chip incubation mobility shift assay
pIC50: −log10 of the molar value.
Entry flag: t if pIC50 reaches 5; f if it does not.

Use these answered entries as a reference point.
CN1CCN(c2ccc(Nc3cc(-c4c[nH]c5ccccc45)ncn3)cc2)CC1: t
COc1cc(N2CCN(C)CC2)ccc1Nc1nccc(-c2c[nH]c3cnc(C)cc23)n1: t
Cc1nccc(-c2c[nH]c3cnccc23)n1: f

Request: Kindly determine if pIC50 recorded for C(=C\c1nccc(-c2c[nH]c3cnccc23)n1)/c1ccccc1 is above or exactly 5.
Response: f

Request: Moving on to the next molecule: CN1CCN(c2ccc(Nc3cc(-c4c[nH]c5cnccc45)ncn3)cc2)CC1
Response: f

* * *

SUBJECT_OF_TEST: Insulin-like growth factor 1 receptor (Homo sapiens)
ASSAY_COMMENT: Inhibition of human recombinant N-terminal His6-tagged IGF-1R using fluorescence substrate after 80 mins by caliper off-chip incubation mobility shift assay
PROPERTY_LABEL: pIC50
Give bare numbers, as −log10 of the molar value.

Would you please look over these solved cases?
COc1cc(N2CCN(C)CC2)ccc1Nc1nccc(-c2cn(C)c3c(C)nccc23)n1: 5.50
COc1cc(OC2CCN(C)CC2)ccc1Nc1nccc(-c2c[nH]c3cnccc23)n1: 5.48
COc1cc(N2CCN(C)CC2)ccc1Nc1nccc(-c2c[nH]c3c(C)nccc23)n1: 7.29

Request: Request the reported pIC50 associated with COc1cc(N2CCN(C)CC2)ccc1Nc1nccc(-c2c[nH]c3cnccc23)n1
Response: 5.83

* * *

SUBJECT_OF_TEST: UniProt:Q9NR20
Sequence (Q9NR20 whole entry): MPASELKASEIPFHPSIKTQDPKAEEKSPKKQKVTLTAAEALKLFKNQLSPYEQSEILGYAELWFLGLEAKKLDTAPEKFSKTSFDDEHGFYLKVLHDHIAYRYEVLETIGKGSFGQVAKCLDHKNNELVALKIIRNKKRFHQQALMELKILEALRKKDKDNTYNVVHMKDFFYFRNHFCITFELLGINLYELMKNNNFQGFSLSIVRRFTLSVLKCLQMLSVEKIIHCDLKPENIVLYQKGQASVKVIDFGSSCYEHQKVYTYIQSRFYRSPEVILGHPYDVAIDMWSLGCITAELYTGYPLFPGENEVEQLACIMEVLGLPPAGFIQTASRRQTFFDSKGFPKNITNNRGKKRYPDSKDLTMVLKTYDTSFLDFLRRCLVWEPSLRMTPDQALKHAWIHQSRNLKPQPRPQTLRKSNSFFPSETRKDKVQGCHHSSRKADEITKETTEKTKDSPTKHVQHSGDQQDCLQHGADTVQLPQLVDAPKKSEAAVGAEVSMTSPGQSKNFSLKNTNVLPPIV
PROPERTY_LABEL: IC50

Request: Request the reported IC50 associated with COc1ccc2c(c1)[nH]c1c(C)nccc12
Response: 74 µM

* * *

SUBJECT_OF_TEST: Dual specificity tyrosine-phosphorylation-regulated kinase 1B (Homo sapiens, UniProt Q9Y463)
Sequence (Q9Y463 whole entry): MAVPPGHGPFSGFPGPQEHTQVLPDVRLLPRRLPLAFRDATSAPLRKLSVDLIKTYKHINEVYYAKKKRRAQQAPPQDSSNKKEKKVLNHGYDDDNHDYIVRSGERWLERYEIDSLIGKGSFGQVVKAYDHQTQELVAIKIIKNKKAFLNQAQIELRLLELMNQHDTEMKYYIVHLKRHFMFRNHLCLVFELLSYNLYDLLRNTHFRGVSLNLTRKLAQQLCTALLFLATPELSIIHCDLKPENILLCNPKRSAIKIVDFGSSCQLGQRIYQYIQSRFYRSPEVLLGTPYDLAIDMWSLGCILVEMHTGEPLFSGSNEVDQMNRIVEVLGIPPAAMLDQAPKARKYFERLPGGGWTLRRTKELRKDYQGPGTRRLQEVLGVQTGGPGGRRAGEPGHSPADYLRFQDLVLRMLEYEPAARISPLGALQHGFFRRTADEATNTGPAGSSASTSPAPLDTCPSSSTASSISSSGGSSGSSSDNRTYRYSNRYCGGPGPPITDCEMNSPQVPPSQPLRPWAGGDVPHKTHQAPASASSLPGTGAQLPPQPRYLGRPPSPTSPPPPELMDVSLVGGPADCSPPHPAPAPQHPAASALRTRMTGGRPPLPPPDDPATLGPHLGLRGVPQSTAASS
ASSAY_COMMENT: Inhibition of recombinant Dyrk1B (unknown origin) using FITC-Asp-His-Thr-Gly-Phe-Leu-Thr-Glu-Tyr-Val-Ala-Thr-Arg-NH2 as substrate after 60 mins
PROPERTY_LABEL: log10 of IC50 (log10 of the value in nM)
The base-10 logarithm of IC50, taken with IC50 in nM, is what appears here.

COc1cc(OC2CCN(C)CC2)ccc1Nc1nccc(-c2c[nH]c3cnccc23)n1: 2.15
CN1CCN(c2ccc(Nc3ncc(Cl)c(-c4c[nH]c5cnccc45)n3)cc2)CC1: 1.40
C(=C\c1nccc(-c2c[nH]c3cnccc23)n1)/c1ccccc1: 0.85
CN1CCN(c2ccc(Nc3cc(-c4c[nH]c5ccccc45)ncn3)cc2)CC1: 1.93
O=C(NC1CCCC1)c1ccc(-c2cc(-c3cc4c([nH]3)CCNC4=O)ccn2)cc1: 1.63

List reported log10 of IC50 for each of these molecules:
1. COc1cc(N2CCN(C(C)=O)CC2)ccc1Nc1nccc(-c2c[nH]c3cnccc23)n1
2. COc1cc(N2CCN(C)CC2)ccc1Nc1nccc(-c2cn(C)c3c(C)nccc23)n1
3. c1cc2c(-c3ccnc4[nH]ccc34)c[nH]c2cn1

Response:
1: 0.95; 2: 0.95; 3: 0.48

List reported log10 of IC50 for each of these molecules:
1. COc1cc(N2CCN(C(C)=O)CC2)ccc1Nc1cc(-c2c[nH]c3cnccc23)ncn1
2. COc1cc(N2CCN(C)CC2)ccc1Nc1nccc(-c2c[nH]c3cnccc23)n1

Response:
1. 1.20
2. 0.60

Reference source for all entries: ChEMBL document CHEMBL3421608
